Recorded values, source ChEMBL document CHEMBL3885861.

- Species: Rattus norvegicus
- ASSAY NOTES: Open TG-GATES - Regimen: Single
- Assay type: toxicity, organism-based, Sprague-Dawley
- Set-up: regimen Single, gender Male, age 6 weeks
- ASSAY CONDITIONS: in vivo, po, 1000 mg/kg, 3 h, tissue Blood, route gavage, dose level High
Measured Plat accompanies every entry in the list below.
VALUE KIND: Plat (x10_4/uL)

{"COMPOUND": "CN/C(=N/CCSCc1nc[nH]c1C)NC#N [CIMETIDINE]", "MEASURED RESULT": 126.2}
{"COMPOUND": "COC(=O)C1=C(C)NC(C)=C(C(=O)OC)C1c1ccccc1[N+](=O)[O-] [NIFEDIPINE]", "MEASURED RESULT": 122.2}
{"COMPOUND": "CNC(=C[N+](=O)[O-])NCCSCc1ccc(CN(C)C)o1 [RANITIDINE]", "MEASURED RESULT": 116.7}
{"COMPOUND": "Cc1nnc2n1-c1ccc(Cl)cc1C(c1ccccc1Cl)=NC2 [TRIAZOLAM]", "MEASURED RESULT": 135.1}
{"COMPOUND": "O=C(OC[C@H]1O[C@@H](OC(=O)c2cc(O)c(O)c(OC(=O)c3cc(O)c(O)c(O)c3)c2)[C@H](OC(=O)c2cc(O)c(O)c(OC(=O)c3cc(O)c(O)c(O)c3)c2)[C@@H](OC(=O)c2cc(O)c(O)c(OC(=O)c3cc(O)c(O)c(O)c3)c2)[C@@H]1OC(=O)c1cc(O)c(O)c(OC(=O)c2cc(O)c(O)c(O)c2)c1)c1cc(O)c(O)c(OC(=O)c2cc(O)c(O)c(O)c2)c1 [TANNIC ACID]", "MEASURED RESULT": 110.6}
